Source listed as PubChem BioAssay (NCATS).

System: HACAT
PROTOCOL: qHTS assay to identify novel small-molecules to repurpose for Merkel cell carcinoma treatment (AID 1296009); note: nearly all actives have a fitted effect of over 60% in size
TEST_CONTEXT: MCC and control cell lines, CellTiter-Glo viability, 72 h; at 44.8 µM (top of the series) unless noted
Inconclusive results are not listed. The source made the active and inactive calls. Calls come from the whole dose curve; as a rule, active = well fitted inhibition curve with a large enough effect; inconclusive = small, poorly fitted or top-dose-only effect; inactive = flat fitted curve, though single readings scatter.
VALUE_TYPE: outcome

Solved cases (4 shown):
COMPOUND | outcome
CNc1nc(C)nc(N[C@H]2CCC[C@@H](C(=O)NCc3ccc(C#N)cc3C(F)(F)F)C2)n1 | inactive
C=C1C(=O)OC[C@H]2C(C(=O)O)=CC3CC(C)(C)C[C@@]132 (stereo partly drawn) | inactive
C[C@@H](CC[C@@H]1[C@@]2(C)CCCC(C)(C)C2CC[C@@]1(C)O)CC(=O)O (stereo partly drawn) | inactive
COC(=O)C1=CO[C@@H](O[C@@H]2O[C@H](CO)[C@@H](O)[C@H](O)[C@H]2O)/C(=C\CO)[C@@H]1CC(=O)OCCc1ccc(O)cc1 | inactive [at 17.4 µM]

I have 5 compounds here; please give me outcome for each one.
1. O=C(/C=C/c1ccc(O)cc1)OCC1OC(O)C(OC2OC(CO)C(O)C(O)C2O)C(O)C1O (stereo not drawn)
2. C=C1[C@H]2CCC3[C@]4(C)CCC[C@@](C)(C(=O)O)C4CC[C@]3(C2)[C@H]1OC(C)=O (stereo partly drawn)
3. COc1ccc(C(=O)CC(=O)O)c2c1C=CC(C)(C)O2
4. C=CC1(C)CC=C2C(CCC3C(C)(C(=O)O)CCCC23C)C1 (stereo not drawn)
5. O=C(N[C@@H]1CC[C@@H](c2cccc(F)c2F)CN(CC(F)(F)F)C1=O)N1CCC(n2c(=O)[nH]c3ncccc32)CC1

inactive [at 17.4 µM]
inactive
inactive
inactive
inactive

I have 2 compounds here; please give me outcome for each one.
1. COc1cnc(-c2ccc(Cn3c(CC(C)(C)C(=O)O)c(SC(C)(C)C)c4cc(OC[C@@H]5Cc6ccccc6N5C(C)=O)ccc43)cc2)nc1
2. CC1=CC(=O)CC(C)(C)C1CO[C@@H]1O[C@H](CO)[C@@H](O)[C@H](O)[C@H]1O (stereo partly drawn)

1. inactive
2. inactive
